These entries and their values trace back to ChEMBL document CHEMBL1157539.

Tested on: Plasmodium falciparum
ASSAY EXPLANATION: GSK_TCMDC: Inhibition of Plasmodium falciparum 3D7 in whole red blood cells, using parasite LDH activity as an index of growth. Test compounds present at 2uM
Type: functional
QUANTITY: Inhibition (%)
Lab book: enter the figure in %, no units written.

Ask: # value lookup — system Plasmodium falciparum, readout Inhibition, item `COc1ccccc1CCNc1nc(C)cc(NCCC(=O)Nc2ccccc2)n1.O=C(O)C(F)(F)F`
Reply: 100

Ask: # value lookup — system Plasmodium falciparum, readout Inhibition, item CC(CC1CCCCC1)NCc1ccccc1OCCC(=O)N1CCCC1C(N)=O (centres undefined)
Reply: 97

Ask: # value lookup — system Plasmodium falciparum, readout Inhibition, item `c1ccc(Oc2ccc(Nc3ccnc4cc(-c5cccc(CNCCN6CCOCC6)c5)ccc34)cc2)cc1`
Reply: 100

Ask: # value lookup — system Plasmodium falciparum, readout Inhibition, item `NC1=NC(c2ccccc2)(c2ccccc2)C(=O)N1CCCCc1ccccn1`
Reply: 94

Ask: # value lookup — system Plasmodium falciparum, readout Inhibition, item COc1ccc(NC(=O)NCC2CCCN(CCCCCNC(=O)/C=C/c3ccc(Cl)c(Cl)c3)C2)c(OC)c1 (centres undefined)
Reply: 95

Ask: # value lookup — system Plasmodium falciparum, readout Inhibition, item COc1ccc(Nc2nccc(N3CCC(NC(=O)c4cccc(C#N)c4)C3)n2)cc1 (centres undefined)
Reply: 92

Ask: # value lookup — system Plasmodium falciparum, readout Inhibition, item `CCOc1cc2ncnc(Nc3ccc(OCc4c(F)cccc4F)c(OC)c3)c2cc1OCC.Cl`
Reply: 96

Ask: # value lookup — system Plasmodium falciparum, readout Inhibition, item `Cl.c1ccc(Oc2ccc(Nc3ccnc(Nc4ccc5cn[nH]c5c4)n3)cc2)cc1`
Reply: 94

Ask: # value lookup — system Plasmodium falciparum, readout Inhibition, item `N=C(N)NN=CC(=O)Nc1cccc(C(F)(F)F)c1.O=S(=O)(O)O`
Reply: 99

---

Test system: HepG2
ASSAY EXPLANATION: GSK_TCMDC: Percent inhibition of human HepG2 cell line. Test compounds present at 10uM.
Type: functional
QUANTITY: Inhibition (%)
Lab book: enter the figure in %, no units written.

Ask: Name the recorded Inhibition for `COc1cccc(CNC(=O)[C@H]2CNCCN2C(=O)CCCc2ccccc2)c1.O=C(O)C(F)(F)F` .
Reply: 56

Ask: Name the recorded Inhibition for `CCNc1cc(C(=O)N[C@@H](Cc2ccccc2)[C@H](O)CNCc2cc(OC)cc(OC)c2)cc(N2CCCS2(=O)=O)c1.Cl` .
Reply: 0

Ask: Name the recorded Inhibition for `Cc1[nH]c(C)c(-c2ccc(CCc3ccc(C(F)(F)F)cc3)nc2)c(=O)c1Cl` .
Reply: 24

Ask: Name the recorded Inhibition for `COc1ccc(NS(=O)(=O)c2cc(NC(=O)Cn3ccccc3=O)ccc2N2CCCCC2)cc1` .
Reply: 20

Ask: Name the recorded Inhibition for `O=C(CCCCCNC(=O)c1ccc(O)c(-c2ccc(Cl)c(Cl)c2)c1)NCc1cccc2ccccc12` .
Reply: 2

Ask: Name the recorded Inhibition for `CCOC(=O)c1c(SCc2cccc(F)c2F)[nH]c2ccccc2c1=O` .
Reply: 1

Ask: Name the recorded Inhibition for `CC(C)c1ccc(NC(=O)c2cccc(CN3CCCN(Cc4cccc(C#N)c4)CC3)c2)cc1.O=C(O)C(F)(F)F` .
Reply: 48

Ask: Name the recorded Inhibition for `COc1cc2nc(NCc3cccc(CNC(=O)c4ccc(-c5ccc(C(C)=O)cc5)cc4)c3)nc(N)c2cc1OC.O=C(O)C(F)(F)F` .
Reply: 32
